Outcome Measure: logP
Answer field: number only, no words.

Example cases with answers are listed next.
O=C(Nc1ccc2nn(C3CCCC3)nc2c1)c1ccc(Cl)cc1 4.11
CS(=O)(=O)Nc1ccc2nn(C3CCCC3)nc2c1 2.44
O=[N+]([O-])c1ccc(S(=O)(=O)Nc2ccc3nn(C4CCCC4)nc3c2)cc1 3.82
CC(C)(C)C(=O)Nc1ccc2nn(C3CCCC3)nc2c1 3.4
COc1cc(C(=O)Nc2ccc3nn(C4CCCC4)nc3c2)cc(OC)c1OC 3.87
O=C(Nc1ccc2nn(C3CCCC3)nc2c1)C(Cl)(Cl)Cl 4.12
CC(C)COC(=O)Nc1ccc2nn(C3CCCC3)nc2c1 4.28
CCOC(=O)Nc1ccc2nn(C3CCCC3)nc2c1 3.43

Reported logP of `O=C(Nc1ccc2nn(C3CCCC3)nc2c1)C(Cl)Cl` : 3.4

Reported logP of `O=C(Nc1ccc2nn(C3CCCC3)nc2c1)c1ccc(C(F)(F)F)cc1` : 4.95

Reported logP of `O=C(CCl)Nc1ccc2nn(C3CCCC3)nc2c1` : 2.78

Reported logP of `Nc1ccc(S(=O)(=O)Nc2ccc3nn(C4CCCC4)nc3c2)cc1` : 2.48

* * *

The reader will find reported logP values listed item by item below.
Answer field: number only, no words.

Reported logP of `O=C(Nc1ccc2nn(C3CCCC3)nc2c1)c1ccc([N+](=O)[O-])cc1` : 3.75

Reported logP of `O=C(Nc1ccc2nn(C3CCCC3)nc2c1)c1ccccc1` : 3.85

Reported logP of `CC(=O)Nc1ccc2nn(C3CCCC3)nc2c1` : 2.45

Reported logP of `Cc1ccc(S(=O)(=O)Nc2ccc3nn(C4CCCC4)nc3c2)cc1` : 3.91

Reported logP of `O=C(Nc1ccc2nn(C3CCCC3)nc2c1)c1ccc(Cl)c(Cl)c1` : 5.32
